Reported IC50 values are given for each entry in this list.
- system tested: human PCSK9 (Homo sapiens)
- Sequence (Q8NBP7 153-692): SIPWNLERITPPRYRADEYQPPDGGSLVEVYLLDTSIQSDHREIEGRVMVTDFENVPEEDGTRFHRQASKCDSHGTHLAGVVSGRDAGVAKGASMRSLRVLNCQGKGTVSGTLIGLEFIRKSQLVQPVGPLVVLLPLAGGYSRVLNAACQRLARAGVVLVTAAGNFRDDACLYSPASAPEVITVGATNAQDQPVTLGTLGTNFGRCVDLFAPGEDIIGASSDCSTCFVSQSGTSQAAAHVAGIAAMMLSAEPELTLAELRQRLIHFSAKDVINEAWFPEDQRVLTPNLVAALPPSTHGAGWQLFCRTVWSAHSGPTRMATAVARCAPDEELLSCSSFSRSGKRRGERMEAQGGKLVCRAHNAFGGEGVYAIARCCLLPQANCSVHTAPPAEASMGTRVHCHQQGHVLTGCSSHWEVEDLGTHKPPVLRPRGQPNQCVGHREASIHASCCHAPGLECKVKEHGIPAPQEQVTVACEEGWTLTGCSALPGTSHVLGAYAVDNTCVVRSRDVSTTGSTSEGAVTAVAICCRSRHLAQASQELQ
- Sequence (Q8NBP7 31-152 partner limits assumed): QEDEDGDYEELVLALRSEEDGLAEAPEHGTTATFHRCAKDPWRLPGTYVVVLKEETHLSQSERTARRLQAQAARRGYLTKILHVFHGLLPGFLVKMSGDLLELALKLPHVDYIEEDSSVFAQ
- assay procedure: PCSK9 ligand binding TR-FRET assay (interference with binding of human PCSK9 to human LDLR)
- experimental setup: TR-FRET; human PCSK9 Alexa Fluor 647 / human LDLR extracellular domain-Europium Kryptate; read-out: PCSK9 FRET Assay IC50
A number alone suffices; assume nM.

Answered cases to consult:
Item: COC[C@@H]1NC(=O)[C@H](C)N(Cc2ccc(Cl)cc2Oc2ccc(-c3cnc(CN(C)C)n3C)cc2)C(=O)C[C@@H](Cc2ccccc2C#N)C(=O)N(C)[C@@H](C)[C@H](C)NC(=O)C[C@H](Cc2ccc(Cl)cc2)N(C)C1=O | IC50: 1.6

Item: COC[C@@H]1NC(=O)[C@H](C)N(Cc2ccc(Cl)cc2Oc2ccc(-c3cnc(CN(C)C)n3C)cc2)C(=O)C[C@@H](CC#N)C(=O)N(C)[C@H]2CCCC[C@@H]2NC(=O)C[C@H](Cc2ccc(Cl)cc2)N(C)C1=O | IC50: 1.6

Item: COC[C@@H]1NC(=O)[C@H](CCCN)N(Cc2ccc(Cl)cc2Oc2ccc(-c3cnc(CN(C)C)n3C)cc2)C(=O)C[C@@H](Cc2ccccc2)C(=O)N(C)[C@@H](C)CNC(=O)C[C@H](Cc2ccc(Cl)cc2)N(C)C1=O | IC50: 107

New cases:
Item: COC[C@@H]1NC(=O)[C@@H](C)N(Cc2ccc(Cl)cc2Oc2ccc(-c3cnc(CN(C)C)n3C)cc2)C(=O)C[C@@H](Cc2ccccc2)C(=O)N(C)[C@H]2CCOC[C@@H]2NC(=O)C[C@H](Cc2ccc(Cl)cc2)N(C)C1=O | IC50: 105

Item: CCc1ccc(CN2C(=O)C[C@@H](Cc3ccccc3)C(=O)N(C)[C@H]3CCCC[C@@H]3NC(=O)C[C@H](Cc3ccc(Cl)cc3)N(C)C(=O)[C@H](COC)NC(=O)[C@@H]2C)c(Oc2ccc(-c3cnc(CN4CCCC4)n3C)cc2)c1 | IC50: 1.8

Item: COC[C@@H]1NC(=O)[C@H](CCN)N(Cc2ccc(Cl)cc2Oc2ccc(-c3cnc(CN(C)C)n3C)cc2)C(=O)C[C@@H](Cc2ccccc2)C(=O)N(C)[C@H]2CCCC[C@@H]2NC(=O)C[C@H](Cc2ccc(Cl)cc2)N(C)C1=O (single isomer, unassigned) | IC50: 7.6

Item: COC[C@@H]1NC(=O)[C@H](C)N(Cc2ccc(Cl)cc2Oc2ccc(-c3cnc(CN4CC[C@H](O)C4)n3C)cc2)C(=O)C[C@@H](Cc2ccccc2)C(=O)N(C)[C@@H](C)CNC(=O)C[C@H](Cc2ccc(Cl)cc2)N(C)C1=O | IC50: 2.1

Item: C[C@H]1CNC(=O)C[C@H](Cc2ccc(Cl)cc2)N(C)C(=O)[C@H](CC(=O)O)NC(=O)[C@H](C)N(Cc2ccc(Cl)cc2Oc2ccc(-c3cnc(CN(C)C)n3C)cc2)C(=O)C[C@@H](Cc2ccccc2)C(=O)N1C | IC50: 3.5

Item: C=CC[C@@H]1CC(=O)N(Cc2ccc(Cl)cc2Oc2ccc(-c3cnc(CN(C)C)n3C)cc2)[C@@H](C)C(=O)N[C@@H](COC)C(=O)N(C)[C@@H](Cc2ccc(Cl)cc2)CC(=O)N[C@@H](C)[C@H](C)N(C)C1=O | IC50: 0.6

Item: COC[C@@H]1NC(=O)[C@H](C)N(Cc2ccc(Cl)cc2Oc2c(F)cc(-c3cnc(CN4CCCC4)n3C)cc2F)C(=O)C[C@@H](Cc2ccccc2)C(=O)N(C)[C@@H](C)CNC(=O)C[C@H](Cc2ccc(Cl)cc2)N(C)C1=O | IC50: 2.01

Item: COC[C@@H]1NC(=O)[C@H](CCC(=O)OC(C)(C)C)N(Cc2ccc(Cl)cc2Oc2ccc(-c3cnc(CN(C)C)n3C)cc2)C(=O)C[C@@H](Cc2ccccc2)C(=O)N(C)[C@H]2CCCC[C@@H]2NC(=O)C[C@H](Cc2ccc(Cl)cc2)N(C)C1=O | IC50: 2.7
